system.under.test: arginase II (ARG II) (Homo sapiens)
Sequence (P78540 23-354): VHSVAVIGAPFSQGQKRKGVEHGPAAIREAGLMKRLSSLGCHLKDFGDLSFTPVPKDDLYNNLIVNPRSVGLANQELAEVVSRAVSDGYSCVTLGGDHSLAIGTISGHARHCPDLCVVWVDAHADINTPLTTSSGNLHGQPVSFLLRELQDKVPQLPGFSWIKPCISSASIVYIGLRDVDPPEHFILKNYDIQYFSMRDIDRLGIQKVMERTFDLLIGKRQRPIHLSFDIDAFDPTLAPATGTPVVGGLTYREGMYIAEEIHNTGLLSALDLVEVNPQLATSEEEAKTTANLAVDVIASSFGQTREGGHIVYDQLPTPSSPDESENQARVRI
experiment.notes: Inhibition of arginase II, spectrophotometric urea assay at 530 nm
Type: biochemical
condition.details: Formula II compounds, Table 2-A; read-out: Potency (ARG)
pIC50: −log10 of the molar value. Where a name gives a salt, the structure may show the parent alone.
Recorded measurements of pIC50, one per entry
reported.property: pIC50

>>> result("NC(CCCCB(O)O)(C(=O)O)C1CCN(Cc2ccccc2-c2ccccc2)CC1 (stereo not shown) [Example 55-A, dihydrochloride]")
"6.60 to 10.00"
>>> result("NC(CCCCB(O)O)(C(=O)O)C1CCN(C(=O)Nc2ccc(Cl)cc2)CC1 (stereo not shown) [32-A, hydrochloride]")
"6.00 to 6.60"
>>> result("NC(CCCCB(O)O)(C(=O)O)C1CCN(Cc2cccc(Cn3cccn3)c2)CC1 (stereo not shown) [Example 65-A, dihydrochloride]")
"6.60 to 10.00"
>>> result("NC(CCCCB(O)O)(C(=O)O)C1CNCCO1 (stereo not shown) [19-A, dihydrochloride]")
"5.30 to 5.70"

* * *

Recorded measurements of IC50, one per entry
system.under.test: human arginase I (ARG I) (Homo sapiens, UniProt P05089)
Sequence (P05089 1-322): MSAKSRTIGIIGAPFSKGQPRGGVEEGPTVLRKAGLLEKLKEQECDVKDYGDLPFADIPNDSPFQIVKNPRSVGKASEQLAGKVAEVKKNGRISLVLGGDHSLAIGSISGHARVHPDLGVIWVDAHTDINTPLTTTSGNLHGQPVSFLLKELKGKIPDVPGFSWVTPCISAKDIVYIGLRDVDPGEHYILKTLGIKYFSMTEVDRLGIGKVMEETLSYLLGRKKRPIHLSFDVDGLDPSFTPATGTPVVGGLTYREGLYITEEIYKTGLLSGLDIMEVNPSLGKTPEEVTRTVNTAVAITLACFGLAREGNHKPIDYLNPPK
experiment.notes: Inhibition of arginase I, spectrophotometric urea assay at 530 nm
Format: biochemical
condition.details: Formula I compounds, Table 2; read-out: Potency (ARG I)
Structures can show the parent of a compound that is named as a salt.
reported.property: IC50

>>> result("CC(C)CC(CO)NCC(N)(CCCCB(O)O)C(=O)O (stereo not shown) [compound 88, dihydrochloride]")
"2000 to 5000 nM"
>>> result("COC[C@H]1CCCN1CC[C@](N)(CCCCB(O)O)C(=O)O [compound 3, dihydrochloride]")
"1000 to 2000 nM"
>>> result("CNC(CCCCB(O)O)(CCCN1CCCC1)C(=O)O (stereo not shown) [compound 137, dihydrochloride]")
"0.1 to 250 nM"
>>> result("NC(CCCCB(O)O)(CCOc1ccc(Cl)cc1Cl)C(=O)O (stereo not shown) [compound 94, hydrochloride]")
"> 5000 nM"
>>> result("NC(CCCCB(O)O)(CCN1CCCCC1C(=O)O)C(=O)O (stereo not shown) [compound 52, dihydrochloride]")
"2000 to 5000 nM"
>>> result("NC(CCCCB(O)O)(CCC1Cc2ccccc2CN1Cc1ccc(Cl)cc1)C(=O)O (stereo not shown) [compound 132, dihydrochloride]")
"0.1 to 250 nM"
>>> result("NC(CCCCB(O)O)(CCN1CCC[C@H](C(=O)O)C1)C(=O)O (stereo partly shown) [compound 56, dihydrochloride]")
"1000 to 2000 nM"
>>> result("CC(N)(CCCCB(O)O)C(=O)O (stereo not shown) [compound 97, hydrochloride]")
"2000 to 5000 nM"
>>> result("N[C@](CCCCB(O)O)(CCN1CCC(O)CC1)C(=O)O [compound 4, dihydrochloride]")
"251 to 1000 nM"
>>> result("NC(CCCCB(O)O)(CCc1ccccn1)C(=O)O (stereo not shown) [compound 116, dihydrochloride]")
"2000 to 5000 nM"
>>> result("N[C@](CCCCB(O)O)(CCN1CCSCC1)C(=O)O [compound 8, dihydrochloride]")
"1000 to 2000 nM"
>>> result("NC(CCCCB(O)O)(CCNCCCc1ccc(Cl)cc1Cl)C(=O)O (stereo not shown) [compound 66, dihydrochloride]")
"0.1 to 250 nM"
>>> result("NC(CCCCB(O)O)(CCCNCc1ccc(Cl)c(Cl)c1)C(=O)O (stereo not shown) [compound 141, dihydrochloride]")
"0.1 to 250 nM"
>>> result("CC(C)(C)NCCC(N)(CCCCB(O)O)C(=O)O (stereo not shown) [compound 67, dihydrochloride]")
"251 to 1000 nM"
>>> result("NC(CCCCB(O)O)(CCNC1CCCC1)C(=O)O (stereo not shown) [compound 72, dihydrochloride]")
"251 to 1000 nM"
>>> result("NC(CCCCB(O)O)(Cc1cnc[nH]1)C(=O)O (stereo not shown) [compound 102, dihydrochloride]")
"2000 to 5000 nM"
>>> result("CNC(CCCCB(O)O)(CCCNCc1ccc(Cl)c(Cl)c1)C(=O)O (stereo not shown) [compound 136, dihydrochloride]")
"0.1 to 250 nM"
>>> result("NCCN(CCN)CCC(N)(CCCCB(O)O)C(=O)O (stereo not shown)")
"1000 to 2000 nM"
>>> result("CC(CC(N)(CCCCB(O)O)C(=O)O)N1CCC(Cc2ccccc2)CC1 (stereo not shown) [compound 124, dihydrochloride]")
"251 to 1000 nM"

* * *

system.under.test: human arginase I (ARG I) (Homo sapiens)
Sequence (P05089 1-322): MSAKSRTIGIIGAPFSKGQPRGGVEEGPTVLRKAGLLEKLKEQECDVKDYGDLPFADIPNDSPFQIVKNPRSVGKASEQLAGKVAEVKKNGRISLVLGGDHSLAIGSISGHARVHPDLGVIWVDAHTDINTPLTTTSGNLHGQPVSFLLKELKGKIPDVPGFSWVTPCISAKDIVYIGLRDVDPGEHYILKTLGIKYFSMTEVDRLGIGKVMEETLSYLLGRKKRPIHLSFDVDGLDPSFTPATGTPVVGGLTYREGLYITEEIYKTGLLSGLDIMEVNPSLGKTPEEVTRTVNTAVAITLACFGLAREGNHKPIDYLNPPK
experiment.notes: Inhibition of arginase I, spectrophotometric urea assay at 530 nm
Type: biochemical
condition.details: Formula I compounds, Table 2; read-out: Potency (ARG I)
Where a name gives a salt, the structure may show the parent alone.
Recorded measurements of IC50, one per entry
reported.property: IC50

>>> result("CCCCC1(NCCC(N)(CCCCB(O)O)C(=O)O)CC1 (stereo not shown) [compound 60, dihydrochloride]")
"0.1 to 250 nM"
>>> result("NC(CCCCB(O)O)(CC1CN(CCc2ccc(Cl)cc2Cl)C1)C(=O)O (stereo not shown) [compound 118, dihydrochloride]")
"251 to 1000 nM"
>>> result("NC(CCCCB(O)O)(CN1CCCCC1)C(=O)O (stereo not shown)")
"2000 to 5000 nM"
>>> result("C[C@H](NCC(N)(CCCCB(O)O)C(=O)O)c1ccccc1 (stereo partly shown) [compound 90, dihydrochloride]")
"2000 to 5000 nM"
>>> result("NC(CCCCB(O)O)(C(=O)O)C(O)C1CCNCC1 (stereo not shown) [compound 109, dihydrochloride]")
"2000 to 5000 nM"
>>> result("COc1ccc(CC2(NCCC(N)(CCCCB(O)O)C(=O)O)CC2)cc1 (stereo not shown)")
"251 to 1000 nM"
>>> result("COC1CCN(CCC(N)(CCCCB(O)O)C(=O)O)CC1 (stereo not shown) [compound 41, dihydrochloride]")
"1000 to 2000 nM"
>>> result("CCCC1CCN(CCC(N)(CCCCB(O)O)C(=O)O)CC1 (stereo not shown) [compound 129, dihydrochloride]")
"251 to 1000 nM"
>>> result("COc1cccc(CCCNCCC(N)(CCCCB(O)O)C(=O)O)c1 (stereo not shown) [compound 65, dihydrochloride]")
"0.1 to 250 nM"
>>> result("CCN1Cc2ccccc2CC1CCC(N)(CCCCB(O)O)C(=O)O (stereo not shown) [compound 130, dihydrochloride]")
"0.1 to 250 nM"
>>> result("CN(C)CCN(C)CCC(N)(CCCCB(O)O)C(=O)O (stereo not shown) [compound 71, trihydrochloride]")
"2000 to 5000 nM"
>>> result("NC(CCCCB(O)O)(CCN1CCC(C(=O)O)CC1)C(=O)O (stereo not shown)")
"1000 to 2000 nM"
>>> result("NC(CCCCB(O)O)(CCNC1CC1)C(=O)O (stereo not shown) [compound 68, dihydrochloride]")
"251 to 1000 nM"

* * *

system.under.test: UniProt:P78540
experiment.notes: Inhibition of arginase II, spectrophotometric urea assay at 530 nm
Assay type: biochemical
condition.details: Formula I compounds, Table 2; read-out: Potency (ARG II)
Counter-ions that a name gives are not always drawn.
Recorded measurements of IC50, one per entry
reported.property: IC50

>>> result("NC(CCCCB(O)O)(CCNCc1ccccc1)C(=O)O (stereo not drawn) [compound 70, dihydrochloride]")
"251 to 1000 nM"
>>> result("CNC(CCCCB(O)O)(CCCN1CCCCC1)C(=O)O (stereo not drawn) [compound 148, dihydrochloride]")
"0.1 to 250 nM"
>>> result("CN(CC[C@](N)(CCCCB(O)O)C(=O)O)C[C@@H](O)c1cccc(O)c1 [compound 12, dihydrochloride]")
"0.1 to 250 nM"
>>> result("NC(CCCCB(O)O)(CCN1CCC(O)(Cc2ccccc2)CC1)C(=O)O (stereo not drawn) [compound 34, dihydrochloride]")
"1000 to 2000 nM"
>>> result("CC(C)CN1Cc2ccccc2CC1CCC(N)(CCCCB(O)O)C(=O)O (stereo not drawn) [compound 135, dihydrochloride]")
"251 to 1000 nM"
>>> result("CC(C)Oc1ccc(CN(C)CCC(N)(CCCCB(O)O)C(=O)O)cc1 (stereo not drawn) [compound 74, dihydrochloride]")
"> 5000 nM"
>>> result("NC(CCCCB(O)O)(CCN1CCC(=O)CC1)C(=O)O (stereo not drawn) [compound 38, dihydrochloride]")
"2000 to 5000 nM"
>>> result("NC(CCCCB(O)O)(C(=O)O)C(O)CCC(F)(F)F (stereo not drawn) [compound 111, hydrochloride]")
"2000 to 5000 nM"
>>> result("N[C@](CCCCB(O)O)(CCN1CC[C@@H](CO)C1)C(=O)O [compound 7, dihydrochloride]")
"251 to 1000 nM"
>>> result("NC(CCCCB(O)O)(C(=O)O)C(O)C1CCCNC1 (stereo not drawn) [compound 110, dihydrochloride]")
"2000 to 5000 nM"
>>> result("CCN(CC)C(=O)C1CCCN(CCC(N)(CCCCB(O)O)C(=O)O)C1 (stereo not drawn) [compound 23, dihydrochloride]")
"251 to 1000 nM"
>>> result("NC(CCCCB(O)O)(CCN(CCO)Cc1ccccc1)C(=O)O (stereo not drawn) [compound 20, dihydrochloride]")
"2000 to 5000 nM"
>>> result("NC(CCCCB(O)O)(CC1CN(CCc2ccc(Cl)cc2Cl)C1)C(=O)O (stereo not drawn) [compound 118, dihydrochloride]")
"251 to 1000 nM"
>>> result("CNC(CCCCB(O)O)(CCCNC1Cc2ccccc2C1)C(=O)O (stereo not drawn) [compound 138, dihydrochloride]")
"0.1 to 250 nM"
>>> result("CC[C@](N)(CCCCB(O)O)C(=O)O [compound 15, hydrochloride]")
"2000 to 5000 nM"
>>> result("NC(CCCCB(O)O)(CCNCCCc1ccc(F)c(F)c1)C(=O)O (stereo not drawn) [compound 63, dihydrochloride]")
"0.1 to 250 nM"
>>> result("COC[C@@H]1CCCN1CC[C@](N)(CCCCB(O)O)C(=O)O [compound 2, dihydrochloride]")
"251 to 1000 nM"
>>> result("CCN(CC)CCC(N)(CCCCB(O)O)C(=O)O (stereo not drawn) [compound 37, dihydrochloride]")
"1000 to 2000 nM"
>>> result("COC[C@@H]1CCCN1CCC(N)(CCCCB(O)O)C(=O)O (stereo partly drawn) [compound 33, dihydrochloride]")
"251 to 1000 nM"
>>> result("NC(CCCCB(O)O)(C(=O)O)C(O)C1CNC1 (stereo not drawn) [compound 113, dihydrochloride]")
"251 to 1000 nM"
>>> result("N[C@](CCCCB(O)O)(CCN1CCC[C@H](O)C1)C(=O)O [compound 5, dihydrochloride]")
"2000 to 5000 nM"
>>> result("CN(CCC(N)(CCCCB(O)O)C(=O)O)Cc1ccc(F)c(C(F)(F)F)c1 (stereo not drawn) [compound 48, dihydrochloride]")
"> 5000 nM"
>>> result("CN(CCO)CCC(N)(CCCCB(O)O)C(=O)O (stereo not drawn) [compound 43, dihydrochloride]")
"2000 to 5000 nM"
>>> result("CN1CCN(CCC(N)(CCCCB(O)O)C(=O)O)CC1 (stereo not drawn) [compound 35, trihydrochloride]")
"2000 to 5000 nM"
